meta.source: the supplement of paper PMC9512659

- System: Mycobacterium tuberculosis Erdman (pMV306hsp+LuxG13)
- Assay Explanation: Einf, effect of the drug pair at infinite dose (maximum growth inhibition) (fraction inhibition (0-1)); higher = more potent; extreme values may be limits of the assay
- Conditions: growth medium: hypoxic dormancy (butyrate + nitrate), then recovery; time point: constant time point
Metric Name: Einf

>>> result("CO[C@H]1/C=C/O[C@@]2(C)Oc3c(C)c(O)c4c(O)c(c(/C=N/N5CCN(C)CC5)c(O)c4c3C2=O)NC(=O)/C(C)=C\\C=C\\[C@H](C)[C@H](O)[C@@H](C)[C@@H](O)[C@@H](C)[C@H](OC(C)=O)[C@@H]1C [rifampicin] + CC(=O)NC[C@H]1CN(c2ccc(N3CCSCC3)c(F)c2)C(=O)O1 [sutezolid]")
0.978
>>> result("CC[C@@H](CO)NCCN[C@@H](CC)CO [ethambutol] + CC(C)=CCC/C(C)=C/CNCCNC1C2CC3CC(C2)CC1C3 [SQ109]")
0.988
>>> result("COc1nc2ccc(Br)cc2cc1[C@@H](c1ccccc1)[C@@](O)(CCN(C)C)c1cccc2ccccc12 [bedaquiline] + CC(C)=CCC/C(C)=C/CNCCNC1C2CC3CC(C2)CC1C3 [SQ109]")
0.992
>>> result("CO[C@H]1/C=C/O[C@@]2(C)Oc3c(C)c(O)c4c(O)c(c(/C=N/N5CCN(C)CC5)c(O)c4c3C2=O)NC(=O)/C(C)=C\\C=C\\[C@H](C)[C@H](O)[C@@H](C)[C@@H](O)[C@@H](C)[C@H](OC(C)=O)[C@@H]1C [rifampicin] + CC(C)=CCC/C(C)=C/CNCCNC1C2CC3CC(C2)CC1C3 [SQ109]")
0.984
>>> result("COc1c(N2C[C@@H]3CCCN[C@@H]3C2)c(F)cc2c(=O)c(C(=O)O)cn(C3CC3)c12 [moxifloxacin] + CC(=O)NC[C@H]1CN(c2ccc(N3CCSCC3)c(F)c2)C(=O)O1")
0.95
>>> result("CC(C)/N=c1\\cc2n(-c3ccc(Cl)cc3)c3ccccc3nc-2cc1Nc1ccc(Cl)cc1 [clofazimine] + CC(=O)NC[C@H]1CN(c2ccc(N3CCSCC3)c(F)c2)C(=O)O1 [sutezolid]")
0.988
>>> result("O=[N+]([O-])c1cn2c(n1)OC[C@@H](OCc1ccc(OC(F)(F)F)cc1)C2 [pretomanid] + CC(=O)NC[C@H]1CN(c2ccc(N3CCSCC3)c(F)c2)C(=O)O1")
0.965
>>> result("NNC(=O)c1ccncc1 [isoniazid] + CC(=O)NC[C@H]1CN(c2ccc(N3CCSCC3)c(F)c2)C(=O)O1 [sutezolid]")
0.987
>>> result("COc1nc2ccc(Br)cc2cc1[C@@H](c1ccccc1)[C@@](O)(CCN(C)C)c1cccc2ccccc12 [bedaquiline] + CC(=O)NC[C@H]1CN(c2ccc(N3CCSCC3)c(F)c2)C(=O)O1 [sutezolid]")
0.989
